Where do these numbers come from? They come from patent US9328122B2.

test system: A549 (human lung cancer) cells; test: MTT cell growth inhibition, solid tumor cells; type: cell-based; conditions: Homo sapiens; A549, 72 h, MTT; read-out: IC90
attribute measured: IC90 (µg/mL)
Give just the number in µg/mL; leave the unit off.

Some solved entries appear below for comparison.
compound	study system	recorded measurement
COc1ccc2cc1Oc1ccc(cc1)C[C@H]1c3cc(c(OC)cc3CCN1C)Oc1c(OCC(O)CN3CCN(C#N)CC3)c(OC)cc3c1[C@H](C2)N(C)CC3 (stereo partly drawn)	A549 (human lung cancer) cells	10.2
C=CCOc1c(OC)cc2c3c1Oc1cc4c(cc1OC)CCN(C)[C@H]4Cc1ccc(cc1)Oc1cc(ccc1OC)C[C@@H]3N(C)CC2	A549 (human lung cancer) cells	4.92

Read the next record carefully.
// query IC90 value for entry C=CCN(C)CC(O)COc1c(OC)cc2c3c1Oc1cc4c(cc1OC)CCN(C)[C@H]4Cc1ccc(cc1)Oc1cc(ccc1OC)C[C@@H]3N(C)CC2 (stereo partly drawn)
8.43
